- Tested on: NCI-H23 lung
- protocol.description: NCI-60 one-dose screen, 48 h (100 = growth as untreated, 0 = no growth, -100 = all killed)
- measurement.parameters: 10 µM unless noted
Compounds without any hit were thinned out: in the full panel of roughly 83,000, 20% have a hit.
quantity.kind: growth (%)
API: value field is a number in %; no unit string.

## Input For NCI-H23 lung, provide growth of CCN(CC)C12CCCCC1(C)C(C#N)(C#N)C(C#N)=C(N)O2 (stereo not drawn) please.
## Output 101

## Input # iterate: CN1CCN(Cc2ccc(NC(=O)c3[nH]ncc3Nc3ncnc4[nH]ccc34)cc2)CC1
## Output -12.2

## Input Repeat for the following compound: COc1cc(C2C(C(=O)c3cccs3)=C(O)C(=O)N2CCN2CCOCC2)cc(OC)c1OC (stereo not drawn)
## Output 103

## Input Same again, this time with COc1ccc(/C=c2/c(=O)[nH]c3nc4sc(C)c(C)c4c(=O)n23)cc1
## Output 90.7

## Input And the next one, COc1ccc2nc3cc(Cl)ccc3c(N3CCN(c4nccc(NCc5ccccc5)n4)CC3)c2c1 ?
## Output 73.2

## Input Another: CCN(CC)CC(C)Nc1ccc([N+](=O)[O-])c2sc3ccccc3c(=O)c12 (stereo not drawn)
## Output 33.5

## Input Also check O=C1CC(c2nc3ccccc3[nH]2)CN1C1CCCCC1 (stereo not drawn)
## Output 89.8

## Input Next compound up: O=C1C=CC(Nc2ccccc2[N+](=O)[O-])C1Nc1ccccc1[N+](=O)[O-] (stereo not drawn)
## Output 6.85

## Input Proceed to CCCNc1nc(SC)nc(-c2cccc(N)c2)c1C#N
## Output 93.2

## Input Could you do the same for CCn1cc2c(cc1=O)-c1nc3ccccc3c3ccnc(c13)C2=O , please?
## Output 27.6

## Input Another compound: C/C(=C(/c1ccc(O)cc1)c1ccc(OCCN(C)C)cc1)c1ccccc1
## Output 81.9

## Input Can you handle S=c1[nH]nc(CSc2ncnc3c2c(-c2ccccc2)cn3-c2ccc(Cl)cc2)o1 next?
## Output 92.7

## Input Also check CC(C)(C)c1nn(-c2ccccc2)c2c1CC1(CN2Cc2ccc3c(c2)OCO3)C(=O)c2ccccc2C1=O
## Output 106

## Input Record: O=C(/C=C/c1cccc(Br)c1)c1ccccc1
## Output 98.7

## Input Cool, now CNc1nc(C)c(-c2nc(Nc3cccc(S(N)(=O)=O)c3)ncc2F)s1
## Output -18.8

## Input Next entry: CC#Cc1nc2ccccc2c(=O)[nH]1
## Output 80.6

## Input Now the compound NC(N)=Nc1ccc(S(=O)(=O)O)cc1
## Output 102

## Input Now the compound N#Cc1c2c(nc3n[nH]c(N)c13)CCCC2
## Output 99.6

## Input Now the same for Oc1ccccc1/C=N/Nc1ccc2ccccc2n1
## Output 45

## Input Same read-out for O=C(NC(Cc1ccccc1)C(=O)CCl)OCc1ccccc1 (stereo not drawn) ?
## Output 69.4

## Input Please do the same for Clc1ccc(-c2nnc(COc3ccccc3Cl)o2)cc1 as well.
## Output 80.6

## Input Another compound to check: O=C1C(=O)N(CCCCn2cc(CO)nn2)c2ccccc21
## Output 98.2

## Input Also COc1ccc(C(=O)c2sc3nc4c(cc3c2N)CCCC4)cc1OC , if possible.
## Output 39.3
